Values were extracted from patent US4165428A.

experiment: Acute toxicity (lethal dose); format: in vivo; settings: mice, estimated from death 72 hours following administration
We begin with a simple list: items and their reported acute toxicity for oral route (lethal dose).
Result Type: acute toxicity for oral route (lethal dose)

>  <Compound>
COc1ccc2c(c1)c(CC(=O)OCc1cccc(C)c1)c(C)n2C(=O)c1ccc(Cl)cc1

>  <Obs Value>
200 to 500 mg/kg

$$$$
>  <Compound>
COc1ccc2c(c1)c(CC(=O)OCc1ccccc1F)c(C)n2C(=O)c1ccc(Cl)cc1

>  <Obs Value>
> 500 mg/kg

$$$$
>  <Compound>
COc1ccc2c(c1)c(CC(=O)OCc1ccc(C)cc1)c(C)n2C(=O)c1ccc(Cl)cc1

>  <Obs Value>
500 mg/kg

$$$$
>  <Compound>
COc1ccc2c(c1)c(CC(=O)OCc1ccc(F)cc1)c(C)n2C(=O)c1ccc(Cl)cc1

>  <Obs Value>
> 500 mg/kg

$$$$
>  <Compound>
COc1ccc2c(c1)c(CC(=O)OCc1cccc(F)c1)c(C)n2C(=O)c1ccc(Cl)cc1

>  <Obs Value>
> 500 mg/kg

$$$$
>  <Compound>
COc1ccc2c(c1)c(CC(=O)OCc1ccccc1C)c(C)n2C(=O)c1ccc(Cl)cc1

>  <Obs Value>
> 500 mg/kg

$$$$
>  <Compound>
COc1ccc2c(c1)c(CC(=O)O)c(C)n2C(=O)c1ccc(Cl)cc1 [indomethacin, reference compound]

>  <Obs Value>
10 to 20 mg/kg

$$$$

---

test: Ulcerogenic activity on rat stomach; assay type: in vivo, Male Wistar rats; conditions: oral, 20 mg/kg, 18 hours after administration; sum of area of erosion and ulcer
We begin with a simple list: items and their reported gastric ulcer index.
Result Type: gastric ulcer index (mm^2)

>  <Compound>
COc1ccc2c(c1)c(CC(=O)OCc1ccccc1C)c(C)n2C(=O)c1ccc(Cl)cc1

>  <Obs Value>
0.19

$$$$
>  <Compound>
COc1ccc2c(c1)c(CC(=O)OCc1cccc(C)c1)c(C)n2C(=O)c1ccc(Cl)cc1

>  <Obs Value>
0.13

$$$$
>  <Compound>
COc1ccc2c(c1)c(CC(=O)OCc1cccc(F)c1)c(C)n2C(=O)c1ccc(Cl)cc1

>  <Obs Value>
0.50

$$$$
>  <Compound>
COc1ccc2c(c1)c(CC(=O)OCc1ccccc1F)c(C)n2C(=O)c1ccc(Cl)cc1

>  <Obs Value>
0.50

$$$$
>  <Compound>
COc1ccc2c(c1)c(CC(=O)O)c(C)n2C(=O)c1ccc(Cl)cc1 [indomethacin, reference compound]

>  <Obs Value>
6.75

$$$$
>  <Compound>
COc1ccc2c(c1)c(CC(=O)OCc1ccc(F)cc1)c(C)n2C(=O)c1ccc(Cl)cc1

>  <Obs Value>
0.13

$$$$
>  <Compound>
COc1ccc2c(c1)c(CC(=O)OCc1ccc(C)cc1)c(C)n2C(=O)c1ccc(Cl)cc1

>  <Obs Value>
0.88

$$$$
